Target: human RNA guanylyltransferase (HCE) (Homo sapiens, UniProt O60942)
Construct: made in house
Sequence (O60942 whole entry): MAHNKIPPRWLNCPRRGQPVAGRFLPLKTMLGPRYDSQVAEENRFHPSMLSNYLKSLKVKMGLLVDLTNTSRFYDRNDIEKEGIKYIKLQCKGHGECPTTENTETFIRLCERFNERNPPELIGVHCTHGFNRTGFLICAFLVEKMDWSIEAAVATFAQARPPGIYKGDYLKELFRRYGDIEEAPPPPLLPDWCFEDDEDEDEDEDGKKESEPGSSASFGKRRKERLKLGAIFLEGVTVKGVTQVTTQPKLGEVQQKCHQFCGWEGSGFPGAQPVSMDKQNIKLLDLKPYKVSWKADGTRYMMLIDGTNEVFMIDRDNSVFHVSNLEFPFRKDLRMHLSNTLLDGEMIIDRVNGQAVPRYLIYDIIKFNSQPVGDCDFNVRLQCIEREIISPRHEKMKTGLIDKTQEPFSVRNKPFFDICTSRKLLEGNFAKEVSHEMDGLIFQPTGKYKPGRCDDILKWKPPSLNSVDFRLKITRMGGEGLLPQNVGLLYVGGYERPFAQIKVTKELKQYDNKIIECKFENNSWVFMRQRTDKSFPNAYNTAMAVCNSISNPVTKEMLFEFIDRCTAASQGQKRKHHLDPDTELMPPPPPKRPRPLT
Assay: First and second step of the GTase reaction, human enzyme
Assay type: biochemical
Settings: enzyme-GMP formation
measurement-name: IC50

[ask] // IC50 lookup, key: COc1c(C)c2c(c(O)c1C/C=C(\C)CCC(=O)O)C(=O)OC2
[reply] ~3 mM

Data credit: paper PMC3174198
